# Test system: Saccharomyces cerevisiae
# PROCEDURE TEXT: protein stability index of tFT-peptide fusion (C-terminal peptide) (PSI (0-1 scale)); higher = more stable (slower turnover)
# MEASUREMENT SETUP: genetic background: wild type; temperature: 30 C
Would you kindly list protein stability index for each of these sequences?
Give bare numbers.

The following sequences have reported results that may help.
Looking up DIRGGDMGEWRE , I found its protein stability index recorded as 0.683

Looking up DRRRGMVRKTHV , I found its protein stability index recorded as 0.659

Looking up PPPRPRSLTCPA , I found its protein stability index recorded as 0.73

Looking up PTHALLGCTCAN , I found its protein stability index recorded as 0.681

Looking up IGGWWCGALLGD , I found its protein stability index recorded as 0.79

Looking up RLHCFSPILCPI , I found its protein stability index recorded as 0.493

Each sequence below has a reported value. Please supply its protein stability index.
1. RGEGLRYVQGSR
2. VIGWSGGCRWSV
3. GVDGRWGGEMGR
4. SGEEVRSVARFF
5. FSSPSFRSSLLL

0.668
0.73
0.747
0.629
0.679

Each sequence below has a reported value. Please supply its protein stability index.
1. NKKKKKKRKRVK
2. GGGGQVWSCRLC
3. ASVCLNVIYQLV
4. RIINRATIIIKL
5. GRSAYRESGRRV
6. RQLGELASARWL
7. KRKREKKLKKYK

1. 0.701
2. 0.678
3. 0.268
4. 0.564
5. 0.675
6. 0.709
7. 0.634

Looking up AGWGWGARQGAL , I found its protein stability index recorded as 0.659

###

Would you kindly list protein stability index for each of these sequences?
# System: Saccharomyces cerevisiae
# PROCEDURE TEXT: protein stability index of tFT-peptide fusion (C-terminal peptide) (PSI (0-1 scale)); higher = more stable (slower turnover)
# MEASUREMENT SETUP: genetic background: cdc34-1; temperature: 37 C
Numbers only.

The following sequences have reported results that may help.
Looking up FLFLSPLALHVS , I found its protein stability index recorded as 0.444

Looking up GFFLCTCIRFWV , I found its protein stability index recorded as 0.452

Looking up YFCVELSVFGFF , I found its protein stability index recorded as 0.416

Each sequence below has a reported value. Please supply its protein stability index.
1. KLRMGRYIVRII
2. PRLRPQTVAFLS
3. KIHILVVQIATR
4. VGDVVWFGVGAG
5. SVVWIRFVGVRV
6. RVGWVVVLGCVG

[0.664, 0.68, 0.0402, 0.733, 0.472, 0.545]

###

Would you kindly list protein stability index for each of these sequences?
# System: Saccharomyces cerevisiae
# PROCEDURE TEXT: protein stability index of tFT-peptide fusion (C-terminal peptide) (PSI (0-1 scale)); higher = more stable (slower turnover)
# MEASUREMENT SETUP: genetic background: das1 deletion; temperature: 30 C
Give bare numbers.

protein stability index on Saccharomyces cerevisiae for TYFSFHILFHNL [YOR309C C-terminal 12 aa] is 0.614

Each sequence below has a reported value. Please supply its protein stability index.
1. LLQVYDRVKASM [TOP3 C-terminal 12 aa]
2. LEVTTKPREWVK [HEM13 C-terminal 12 aa]
3. DQAAKTFVIKKD [MDM38 C-terminal 12 aa]
4. DEQGNELSPRNY [MID2 C-terminal 12 aa]
5. DLSLVFGNHEST [HEM15 C-terminal 12 aa]

1. 0.67
2. 0.687
3. 0.703
4. 0.692
5. 0.694

###

# Tested on: Saccharomyces cerevisiae
# PROCEDURE TEXT: protein stability index of tFT-peptide fusion (C-terminal peptide) (PSI (0-1 scale)); higher = more stable (slower turnover)
# MEASUREMENT SETUP: genetic background: wild type; temperature: 30 C
Outcome label depends on protein stability index relative to 0.7: at/above gives Yes, below gives No.

Given the entry GTVDGILLVFVE , answer whether its protein stability index meets or surpasses 0.7. No

Given the entry FWESHVLPYRLL , answer whether its protein stability index meets or surpasses 0.7. No

Given the entry SPPPPPTSPPPY , answer whether its protein stability index meets or surpasses 0.7. No

Given the entry ERGEEESGRSGS , answer whether its protein stability index meets or surpasses 0.7. Yes

Given the entry GAPPPPPARGDL , answer whether its protein stability index meets or surpasses 0.7. Yes

Next:
Given the entry EYDIKRRKRRNT , answer whether its protein stability index meets or surpasses 0.7. No

Given the entry GIWVWRGARSVG , answer whether its protein stability index meets or surpasses 0.7. Yes

Given the entry GESPSTIRSVYS , answer whether its protein stability index meets or surpasses 0.7. No

Given the entry SRPALLLGSEAT , answer whether its protein stability index meets or surpasses 0.7. No

Given the entry PSLPPHPPSPLP , answer whether its protein stability index meets or surpasses 0.7. Yes

Given the entry LCLFRSCVHSSA , answer whether its protein stability index meets or surpasses 0.7. No

Given the entry PPCPPPPPVLPT , answer whether its protein stability index meets or surpasses 0.7. No

Given the entry RRRLLLWEELVE , answer whether its protein stability index meets or surpasses 0.7. Yes

Given the entry GDSGVWGPMGLW , answer whether its protein stability index meets or surpasses 0.7. Yes

Given the entry SRLSPSPLPPFL , answer whether its protein stability index meets or surpasses 0.7. No

Given the entry PFAFLSLVLLLP , answer whether its protein stability index meets or surpasses 0.7. No

Given the entry FSRFWVSGGVVC , answer whether its protein stability index meets or surpasses 0.7. No

Given the entry RLPQIHSDREQK , answer whether its protein stability index meets or surpasses 0.7. Yes

Given the entry CRLRLVYCVKYD , answer whether its protein stability index meets or surpasses 0.7. No

Given the entry ARSSILRCRGYR , answer whether its protein stability index meets or surpasses 0.7. Yes

Given the entry FLPFRVFNFSLV , answer whether its protein stability index meets or surpasses 0.7. No

Given the entry GGGGARRLAVGQ , answer whether its protein stability index meets or surpasses 0.7. No

Given the entry WESGRNNWYMNK , answer whether its protein stability index meets or surpasses 0.7. Yes

Given the entry KRNKDYGSFEVT , answer whether its protein stability index meets or surpasses 0.7. No

Given the entry CSLSYFSAHCVP , answer whether its protein stability index meets or surpasses 0.7. No

Given the entry GETVGCARLRLS , answer whether its protein stability index meets or surpasses 0.7. No

Given the entry VRKKGKKKKKDK , answer whether its protein stability index meets or surpasses 0.7. No

###

# Test system: Saccharomyces cerevisiae
# PROCEDURE TEXT: protein stability index of tFT-peptide fusion (C-terminal peptide) (PSI (0-1 scale)); higher = more stable (slower turnover)
# MEASUREMENT SETUP: genetic background: cdc53-1; temperature: 37 C
MEASURED PARAMETER: protein stability index
Numbers only.

The following sequences have reported results that may help.
Looking up GAICCFCCYLVF , I found its protein stability index recorded as 0.625

Looking up CTAWWVKGVAVK , I found its protein stability index recorded as 0.639

Looking up TVGVGWVWVGVL , I found its protein stability index recorded as 0.611

Looking up IFLLLRRIIALS , I found its protein stability index recorded as 0.326

Each sequence below has a reported value. Please supply its protein stability index.
1. VVCLLGIFYGFC
2. YMPKHKIQKLMQ
3. FVLWWGWSWLVV
4. ACVWVVALVWVF
5. GPPPPPSLLLLC
6. EGVVLLVDCVAT

1. 0.497
2. 0.728
3. 0.306
4. 0.249
5. 0.712
6. 0.465

Each sequence below has a reported value. Please supply its protein stability index.
1. RKNIKISKAGIG
2. RPAVVPPPFAPL
3. RYCVVDISAFCD
4. FFCVLGLSFFCL
5. VWVISLCIGGVG
6. LLYHFCLFFFRE
7. RLPYSLTFFLLC
8. YVCVVSVLLGLL

1. 0.394
2. 0.724
3. 0.576
4. 0.618
5. 0.366
6. 0.592
7. 0.579
8. 0.319

Each sequence below has a reported value. Please supply its protein stability index.
1. VGVIGWGGLGVG
2. VCLWAIHLSGCW
3. CLFFLVYELSIL
4. NLDRYYKKIKLI
5. FLLASSRRICCS
6. LLVYLYFFFSCS

1: 0.553; 2: 0.601; 3: 0.352; 4: 0.69; 5: 0.486; 6: 0.442

Each sequence below has a reported value. Please supply its protein stability index.
1. HLGNTMIKKLIG
2. LWNFYELVVYAM
3. NDVGGYFYVCSE
4. AVLFAPPLSSNF
5. VFSVSVLFLFFH
6. LMVLISVMFSLG
7. LLVFSLLYPCLV
8. IERLRLRTRIIC

1. 0.722
2. 0.0695
3. 0.749
4. 0.782
5. 0.392
6. 0.254
7. 0.362
8. 0.481

Each sequence below has a reported value. Please supply its protein stability index.
1. FNLWCRQLASIE
2. LLLRQVFSLGVF
3. AGGVNWWSSWRV
4. RITGCWKTYKMQ
5. PRHVLWLRRLLF
6. QPSSFDMLGLLL

1: 0.218; 2: 0.64; 3: 0.767; 4: 0.721; 5: 0.729; 6: 0.738

Each sequence below has a reported value. Please supply its protein stability index.
1. LVSLCYAYPRYC
2. HANPGTFGPCTR
3. IILRPQYVHYFL

1: 0.685; 2: 0.72; 3: 0.594
